Test system: CCRF-CEM leukemia
Experiment: NCI tumour cell line growth inhibition, 48 h; in the data active means GI50 below about 0.43 µM; inactive means the rest
Classes used: yes for active, no for inactive

{"columns": ["molecule", "measurementTarget", "class"],
 "data": [
  ["Clc1cnc(Nc2ccc(OCCN3CCCC3)cc2)nc1NCc1ccco1", "CCRF-CEM leukemia", "no"],
  ["COc1cc2c(cc1OCC(=O)Nc1ccc(Cl)cc1C(=O)c1ccccc1Cl)N=CC1CCCN1C2=O (stereo unspecified)", "CCRF-CEM leukemia", "no"],
  ["O=C1/C=C/[C@@H](O)[C@@H]2C[C@@H](O)C[C@H]2/C=C/CCC[C@H](CCO)O1", "CCRF-CEM leukemia", "yes"],
  ["CCN(CC)CCOc1nc2ccccc2c2c1-c1ccc(OC)cc1C2=O", "CCRF-CEM leukemia", "yes"],
  ["CCN1CCN(C(=O)[C@]23CC[C@@H](C)[C@H](C)[C@@H]2C2=CC[C@@H]4[C@@]5(C)CCC(=O)C(C)(C)[C@@H]5CC[C@@]4(C)[C@]2(C)CC3)CC1", "CCRF-CEM leukemia", "no"],
  ["Cc1[nH]nc(C(F)(F)F)c1Cc1sc2c(c1C(=O)N1C[C@](C)(O)CO1)c(=O)n(C)c(=O)n2C(C)C", "CCRF-CEM leukemia", "no"]
]}
